system: Ran GTPase (GTP-bound) - importin-beta complex; test: disruptors of Ran-importin-beta complex formation – biochemical, FRET, CFP-Ran, YFP-importin-beta, homogeneous, primary screen (AID 2216); conditions: cell-free CFP-Ran/YFP-importin-beta FRET ratio; active compounds read high; concentration not given here;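 further: 0% = DMSO wells and 100% = Ran loaded with GDP instead of GTP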
In all, about 300,000 compounds went through this assay and about 3,300 (1.1%) were called active. About 6% were inconclusive and are not listed. Shown is part of a subset that was picked to be rich in actives.
VALUE_TYPE: inhibition (%)

In [3]: df
Out[3]:
                                    molecule                              assay_target  unit_text  reported_value
 0  COc1ccccc1CNC(=O)CSc1nc(=O)n(Cc2ccncc2)c2c1CCC2  Ran GTPase (GTP-bound) - importin-beta complex          %           -4.86
 1        COCCNc1nc2nonc2nc1N(C)Cc1ccc(C)cc1  Ran GTPase (GTP-bound) - importin-beta complex          %           -1.03
 2  COC(=O)c1ccc(C(=O)OC)c(NC(=S)N2CCN(c3ccc(F)cc3)CC2)c1  Ran GTPase (GTP-bound) - importin-beta complex          %            6.98
 3     CCN(CC)C(=O)CCC(=O)Nc1ccc(C(=O)OC)cc1  Ran GTPase (GTP-bound) - importin-beta complex          %           -3.39
 4  COC(=O)c1ccc(C(=O)OC)c(NC(=S)N2CCCCC2)c1  Ran GTPase (GTP-bound) - importin-beta complex          %            55.3
 5  COC(=O)c1c(-c2ccsc2)oc2ccc(-c3cc(OC)c(OC)c(OC)c3)cc12  Ran GTPase (GTP-bound) - importin-beta complex          %           -4.62
 6  COCCNc1nc2nonc2nc1N1CCCC1c1nccs1 (stereo unspecified)  Ran GTPase (GTP-bound) - importin-beta complex          %            24.9
 7                  COCCNc1ncnc2c1nc1n2CCCC1  Ran GTPase (GTP-bound) - importin-beta complex          %           -7.47
 8    CCN(CCO)C(=S)Nc1cc(C(=O)OC)ccc1C(=O)OC  Ran GTPase (GTP-bound) - importin-beta complex          %            16.3
 9      CCS(=O)(=O)Nc1cc(C(=O)OC)ccc1C(=O)OC  Ran GTPase (GTP-bound) - importin-beta complex          %            4.57
10  CC1CN(C(=S)Nc2ccc(Br)cc2Cl)CC(C)O1 (stereo unspecified)  Ran GTPase (GTP-bound) - importin-beta complex          %           -3.05

Hey, just so you know, these numbers are from PubChem BioAssay AID2216.
